B1: TPR t1 (parent)
chain: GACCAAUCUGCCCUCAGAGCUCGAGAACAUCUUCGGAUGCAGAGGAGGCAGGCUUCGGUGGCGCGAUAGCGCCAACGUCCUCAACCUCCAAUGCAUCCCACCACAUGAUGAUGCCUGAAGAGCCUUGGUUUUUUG

Variants of: B1
Test: polymerase ribozyme fitness, log enrichment relative to wild type (log ratio); higher = more active; in vitro selection for triplet polymerase activity
parameter.measured: polymerase ribozyme fitness (log ratio)

Reference set, count: 3
[
  {
    "mutant": "C12G A43U A75U C124G",
    "parameter.measured": "polymerase ribozyme fitness (log ratio)",
    "assay.value": 0.348
  },
  {
    "mutant": "C56A G60A",
    "parameter.measured": "polymerase ribozyme fitness (log ratio)",
    "assay.value": -0.181
  },
  {
    "mutant": "C40U C70A",
    "parameter.measured": "polymerase ribozyme fitness (log ratio)",
    "assay.value": -1.93
  }
]

Request: Need polymerase ribozyme fitness (log ratio), item A5U A18G
Response: -2.05

Request: Need polymerase ribozyme fitness (log ratio), item C56U C82A G120A G128A
Response: -0.705
